System: Staphylococcus epidermidis (ATCC 12228)
Assay: MIC, NCCLS broth microdilution assay
Assay type: cell-based
Settings: G = S. epidermidis ATCC 12228
quantity-kind: Minimum Inhibitory Concentration (MIC)

• Cn1cc(NC(=O)c2cc(NC(=O)c3cc(NC(=O)c4ccc(C#N)cc4)cn3C)cn2C)cc1C(=O)NCCN1CCSCC1 = +++ (+++ = MIC ≦ 4)
• Cn1cc(NC(=O)c2cc(NC(=O)c3ccc(Cl)cc3F)c[nH]2)cc1C(=O)Nc1cc(C(=O)NCCN2CCCCC2)n(CCCO)c1 = +++ (+++ = MIC ≦ 4)

* * *

System: E. faecalis ATCC 29212
Test: MIC, NCCLS broth microdilution assay
Type: cell-based, Enterococcus faecalis
Details: C = E. faecalis ATCC 29212
quantity-kind: Minimum Inhibitory Concentration (MIC)

* Cc1cc(NC(=O)c2cc(NC(=O)c3cc(NC(=O)c4ccc(Cl)cc4NCCN4CCOCC4)cn3C)c[nH]2)sn1 [Compound C-21] | ++ (++ = 4 < MIC < 12)
* Cn1cc(NC(=O)c2cc(NC(=O)c3cc(NC(=O)c4cccc(Cl)c4)cn3C)cn2C)cc1C(=O)NCCN1CCOCC1 [Compound B-59] | ++ (++ = 4 < MIC < 12)
